Listed compounds paired with reported Ki
# TARGET_OR_SYSTEM: Sushi domains (SD1/2) protein
# ASSAY_METHOD_TEXT: Fluorescence polarization (FP) competition assay with AJAP-1probe, calculated Ki
# Format: binding
# CONDITIONS_USED: Table 11, deep mutational scanning validation variants of AJAP-1WT; read-out: Ki (nM) mean ± SEM
Residues, ends and D or L forms follow the SMILES beside them.
API: value field is a number in nM; no unit string.

INSERT INTO assay_data (compound, experimental_result) VALUES
  ('CC[C@H](C)[C@H](NC(=O)[C@H](Cc1ccccc1)NC(=O)[C@H](CC(=O)O)NC(=O)[C@@H](NC(=O)[C@H](CCC(=O)O)NC(C)=O)[C@@H](C)O)C(=O)N[C@@H](C)C(=O)N[C@@H](Cc1c[nH]c2ccccc12)C(=O)NCC(=O)N1CCC[C@H]1C(=O)N[C@H](C(=O)NCC(=O)N[C@@H](CC(=O)O)C(=O)N[C@@H](CCC(=O)O)C(=O)N[C@@H](CC(=O)O)C(N)=O)[C@@H](C)O [ETDFIAWGPTGDED] (Ac-ETDFIAWGPTGDED-NH2)', 26);

Now consider the entry below.
Q: Which measured Ki belongs to CC[C@H](C)[C@H](NC(=O)[C@H](Cc1c[nH]c2ccccc12)NC(=O)[C@H](CCC(=O)O)NC(=O)[C@@H](NC(=O)[C@H](CCC(=O)O)NC(C)=O)[C@@H](C)O)C(=O)N[C@@H](C)C(=O)N[C@@H](Cc1c[nH]c2ccccc12)C(=O)NCC(=O)N1CCC[C@H]1C(=O)N[C@H](C(=O)NCC(=O)N[C@@H](CC(=O)O)C(=O)N[C@@H](CCC(=O)O)C(=O)N[C@@H](CC(=O)O)C(N)=O)[C@@H](C)O [ETEWIAWGPTGDED] (Ac-ETEWIAWGPTGDED-NH2) , tested on Sushi domains (SD1/2) protein?
Ans: 35
